# TGT: Carboanhydrase IX (Homo sapiens, UniProt Q16790 38-459)
# MEASUREMENT PROTOCOL: cell-based or functional assay
MIAPaCa 2/CA9+ IC50: recorded values
Show the value, then the unit it is measured in.

Please review the entries below; each comes with its answer.
BINDER: Example 295 (antibody, human IgG1, kappa, V domains shown, linker-toxophore on cysteine S) VH: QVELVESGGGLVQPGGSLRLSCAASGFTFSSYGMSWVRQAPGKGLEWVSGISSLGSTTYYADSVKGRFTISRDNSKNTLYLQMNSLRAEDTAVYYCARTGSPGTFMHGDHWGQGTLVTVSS VL: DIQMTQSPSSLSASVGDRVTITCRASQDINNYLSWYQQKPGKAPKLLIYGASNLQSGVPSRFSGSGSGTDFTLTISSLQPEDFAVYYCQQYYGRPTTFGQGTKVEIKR
MIAPaCa 2/CA9+ IC50: 25 nM

BINDER: Example 315 (antibody, human IgG1, kappa, V domains shown, linker-toxophore on cysteine S) VH: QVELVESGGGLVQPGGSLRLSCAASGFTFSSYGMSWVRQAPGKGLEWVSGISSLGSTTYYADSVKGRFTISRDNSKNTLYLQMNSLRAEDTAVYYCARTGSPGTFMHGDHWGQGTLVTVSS VL: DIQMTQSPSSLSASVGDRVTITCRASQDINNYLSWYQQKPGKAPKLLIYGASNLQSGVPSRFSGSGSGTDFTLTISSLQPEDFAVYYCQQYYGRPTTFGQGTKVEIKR
MIAPaCa 2/CA9+ IC50: 3.2 nM

With those in mind, consider the next binder.
May I ask what MIAPaCa 2/CA9+ IC50 has been recorded for Example 298 (antibody, human IgG1, kappa, V domains shown, linker-toxophore on cysteine S) VH: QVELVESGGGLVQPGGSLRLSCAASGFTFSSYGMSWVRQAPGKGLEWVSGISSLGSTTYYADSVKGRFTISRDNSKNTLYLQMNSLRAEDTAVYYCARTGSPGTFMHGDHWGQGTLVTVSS VL: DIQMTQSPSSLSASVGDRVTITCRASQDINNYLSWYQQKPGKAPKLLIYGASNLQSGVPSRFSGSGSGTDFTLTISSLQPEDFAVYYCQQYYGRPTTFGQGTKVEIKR ?
1.1 nM
